test: Anticancer activity against human PANC1 cells assessed as inhibition of cell growth after 72 hrs by MTT assay; type: functional, cell-based; conditions: PANC-1, 72 h
READOUT TYPE: IC50 (µM)
Quick reminder: number only, in µM, skip the unit.

| SMI | UNIT ANNOTATION | ASSAY VALUE |
| --- | --- | --- |
| COc1cc2oc(=O)cc(C[Se]C(=N)N)c2cc1OC | µM | 10 |
| N=C(N)SCc1ccc(-n2cccc2)cc1 | µM | 40.6 |
| N=C(N)[Se]Cc1cc2c(cc1Br)OCO2 | µM | 16.5 |
| Br.Br.N=C(N)[Se]Cc1nc2ccccc2nc1C[Se]C(=N)N | µM | 2 |

Okay, next one:
IC50 lookup needed for N=C(N)[Se]CN1C(=O)c2ccccc2C1=O , thanks.
12.6

###

system: HT-29; assay: Anticancer activity against human HT-29 cells assessed as inhibition of cell growth after 72 hrs by MTT assay; type: functional, cell-based; settings: HT-29, 72 h
Reported pIC50 values follow for various compounds
// pIC50 here means minus log10 of the molar concentration (mol/L)

Would you please look over these solved cases?
| SMI | pIC50 |
| --- | --- |
| O=c1[nH]cc(F)c(=O)[nH]1 | 5.20 |
| Br.Br.N=C(N)[Se]Cc1nc2ccccc2nc1C[Se]C(=N)N | 5.66 |

Requested read-out pIC50, target or system HT-29, entry N=C(N)SCc1ccc2c(c1)C(=O)c1ccccc1C2=O
5.13

###

assay: Anticancer activity against human PANC1 cells assessed as inhibition of cell growth after 72 hrs by MTT assay; type: functional, cell-based; details: PANC-1, 72 h
Reported IC50 values follow for various compounds
Quick reminder: number only, in µM, skip the unit.

| SMI | READOUT TYPE | UNIT ANNOTATION | ASSAY VALUE |
| --- | --- | --- | --- |
| Cc1noc(C)c1C[Se]C(=N)N | IC50 | µM | 13.6 |

IC50 lookup needed for N=C(N)[Se]Cc1ccc2ccccc2n1 , thanks.
9.6

IC50 lookup needed for N=C(N)[Se]Cc1ccc([N+](=O)[O-])o1 , thanks.
13.6

###

test: Anticancer activity against human 1205 Lu cells assessed as inhibition of cell growth after 48 hrs by MTT assay; format: functional, cell-based
READOUT TYPE: IC50 (µM)
Quick reminder: number only, in µM, skip the unit.

IC50 lookup needed for Br.Br.N=C(N)[Se]Cc1nc2ccccc2nc1C[Se]C(=N)N , thanks.
2.8

IC50 lookup needed for N=C(N)SCc1ccc2c(c1)C(=O)c1ccccc1C2=O , thanks.
8.5

IC50 lookup needed for N=C(N)[Se]Cc1ccc([N+](=O)[O-])o1 , thanks.
15.7

IC50 lookup needed for N=C(N)[Se]CN1C(=O)c2ccccc2C1=O , thanks.
13.2

IC50 lookup needed for N=C(N)[Se]Cc1ccc2c(c1)C(=O)c1ccccc1C2=O , thanks.
14.5

IC50 lookup needed for N=C(N)[Se]Cc1c2ccccc2nc2ccccc12 , thanks.
16.7

###

system: A549; assay: Anticancer activity against human A549 cells assessed as inhibition of cell growth after 24 hrs by MTT assay; assay type: functional, cell-based; conditions: A549, 24 h
READOUT TYPE: log10(IC50) (log10 of the value in µM)
The common logarithm of IC50 in µM is what is listed.

log10(IC50) lookup needed for COc1cc2oc(=O)cc(C[Se]C(=N)N)c2cc1OC , thanks.
1.20

log10(IC50) lookup needed for N=C(N)[Se]Cc1ccc(-n2cccc2)cc1 , thanks.
1.40

log10(IC50) lookup needed for N=C(N)[Se]CN1C(=O)c2ccccc2C1=O , thanks.
1.05

log10(IC50) lookup needed for N=C(N)[Se]Cc1ccc2c(c1)C(=O)c1ccccc1C2=O , thanks.
0.95

log10(IC50) lookup needed for N=C(N)[Se]Cc1ccc2ccccc2n1 , thanks.
1.60

log10(IC50) lookup needed for Br.Br.N=C(N)[Se]Cc1nc2ccccc2nc1C[Se]C(=N)N , thanks.
0.48
